Source: patent US3960667A

# test details: Acute toxicity in mice
# test conditions: mouse, in vivo, ip, administered intraperitoneally
property label: LD50

Asked: For CNc1ccc2oc(C[C@H]3O[C@@]4(CC[C@H]3C)O[C@H]([C@H](C)C(=O)c3ccc[nH]3)[C@H](C)C[C@H]4C)nc2c1C(=O)O [Antibiotic A23187] , write its LD50.
Given back: ~10 mg/kg

----------
# test details: Electrometric titration
# Type: physicochemical
# test conditions: 90% dimethylsulfoxide; electrometric titration in 90 percent dimethylsulfoxide
Counter-ions that a name gives are not always drawn.
property label: pKa
When you answer, write just the number.

Asked: Tell us which pKa value is on record for CNc1ccc2oc(CC3OC4(CCC3C)OC(C(C)C(=O)c3ccc[nH]3)C(C)CC4C)nc2c1C(=O)O (stereo not shown) [mixed calcium-magnesium salt of A23187]
Given back: 6.9
